Tested on: human VR1 (Homo sapiens, UniProt Q8NER1)
Construct: expressed in transfected cells; host or cells: CHO K1 cells (ECACC), stably transfected
Sequence (Q8NER1 whole entry): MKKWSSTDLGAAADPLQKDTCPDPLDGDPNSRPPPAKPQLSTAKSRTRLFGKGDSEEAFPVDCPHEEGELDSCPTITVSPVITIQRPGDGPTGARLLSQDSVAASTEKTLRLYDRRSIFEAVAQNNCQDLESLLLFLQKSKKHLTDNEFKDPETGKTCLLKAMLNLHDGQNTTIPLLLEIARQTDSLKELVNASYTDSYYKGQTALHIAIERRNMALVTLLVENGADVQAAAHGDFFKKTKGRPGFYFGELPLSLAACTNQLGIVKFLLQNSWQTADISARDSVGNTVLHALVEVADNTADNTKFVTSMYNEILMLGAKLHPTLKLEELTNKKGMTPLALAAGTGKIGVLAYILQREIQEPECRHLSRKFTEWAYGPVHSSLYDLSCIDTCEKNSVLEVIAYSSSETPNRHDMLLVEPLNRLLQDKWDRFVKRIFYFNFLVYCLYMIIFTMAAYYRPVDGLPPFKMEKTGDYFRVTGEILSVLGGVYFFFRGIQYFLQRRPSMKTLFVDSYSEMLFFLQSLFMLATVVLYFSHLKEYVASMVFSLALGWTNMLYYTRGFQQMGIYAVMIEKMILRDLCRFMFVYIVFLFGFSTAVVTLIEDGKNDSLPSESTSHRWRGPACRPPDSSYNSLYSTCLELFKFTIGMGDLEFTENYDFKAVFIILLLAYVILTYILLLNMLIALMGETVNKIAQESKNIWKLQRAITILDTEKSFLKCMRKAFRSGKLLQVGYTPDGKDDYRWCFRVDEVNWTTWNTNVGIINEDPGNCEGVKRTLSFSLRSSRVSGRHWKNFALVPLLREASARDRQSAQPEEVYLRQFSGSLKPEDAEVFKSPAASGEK
Measurement notes: FLIPR pH assay
Format: cell-based
Parameter measured: IC50 (nM)
Entry rule: numbers only, all in nM.

// below: answered compounds
So what's the measured IC50 for this one? CC(C(=O)NCc1ccc(C(F)(F)F)cc1N1CCC(c2cccs2)(N(C)C)CC1)c1ccc(NS(C)(=O)=O)c(F)c1 (stereo not shown) [[4]]
776

Entry under review: CC(C(=O)NCc1ccc(C(F)(F)F)nc1N1CCC(c2ccccc2)(N(C)C)CC1)c1ccc(NS(C)(=O)=O)c(F)c1 (stereo not shown) [[1]] . Reported IC50?
806

Tell me the measured IC50 of CC(C(=O)NCc1ccc(C(F)(F)F)cc1N1CCC(Cc2cccc(F)c2)(N(C)C)CC1)c1ccc(NS(C)(=O)=O)c(F)c1 (stereo not shown) [[10]] , please.
137

Please turn your attention to the following entry.
Form field: reported IC50 of CC(C(=O)NCc1ccc(C(F)(F)F)cc1N1CCC(Cc2ccccc2)(N(C)C)CC1)c1ccc(NS(C)(=O)=O)c(F)c1 (stereo not shown) [[7]]
434

----------
Tested on: human VR1 (Homo sapiens, UniProt Q8NER1)
Construct: expressed in transfected cells; host or cells: CHO K1 cells (ECACC), stably transfected
Measurement notes: FLIPR pH assay
Type: cell-based
Setup conditions: human VR1-transfected CHO K1 cells, 60 mM MES, pH 4.95; read-out: IC50 (pH)
Below: a set of entries, each annotated with reported log10(IC50).
Plainly stated, the numbers are log10 of IC50 given in nM.

Entry CC(C(=O)NCc1ccc(C(F)(F)F)nc1N1CCC(Cc2cccc(F)c2)(N(C)C)CC1)c1ccc(NS(C)(=O)=O)c(F)c1 (centres unmarked) [[9]] , system human VR1 (Homo sapiens, UniProt Q8NER1): what log10(IC50) was measured?
2.16

log10(IC50) of CC(C(=O)NCc1ccc(C(C)(C)C)nc1N1CCC(Cc2ccccc2)(N(C)C)CC1)c1ccc(NS(C)(=O)=O)c(F)c1 (centres unmarked) [[6]] on human VR1 (Homo sapiens, UniProt Q8NER1)?
3.13

Give recorded log10(IC50) with human VR1 (Homo sapiens, UniProt Q8NER1) for the following compound: CC(C(=O)NCc1ccc(C(C)(C)C)nc1N1CCC(c2ccccc2)(N(C)C)CC1)c1ccc(NS(C)(=O)=O)c(F)c1 (centres unmarked) [[2]]
2.57

Param readout = log10(IC50); param system = human VR1 (Homo sapiens, UniProt Q8NER1); param query = CC(C(=O)NCc1ccc(C(F)(F)F)nc1N1CCC(Cc2ccccc2)(N(C)C)CC1)c1ccc(NS(C)(=O)=O)c(F)c1 (centres unmarked) [[5]] ; response: value
2.05

Report log10(IC50) for CC(C(=O)NCc1ccc(C(F)(F)F)nc1N1CCC(c2cccs2)(N(C)C)CC1)c1ccc(NS(C)(=O)=O)c(F)c1 (centres unmarked) [[3]] tested on human VR1 (Homo sapiens, UniProt Q8NER1).
2.53

----------
Tested on: vanilloid receptor 1 (VR1/TRPV1) (Homo sapiens)
Construct: expressed in transfected cells; host or cells: CHO K1 cells (ECACC), stably transfected
Measurement notes: FLIPR capsaicin assay
Format: cell-based, human or rat
# Ki listing for each entry below
Answer with the value and then the unit.

Sample answers from the record:
Any idea what Ki was measured for CC(C(=O)NCc1ccc(C(C)(C)C)nc1N1CCC(c2ccccc2)(N(C)C)CC1)c1ccc(NS(C)(=O)=O)c(F)c1 (centres unmarked) [[2]] ?
3.7 nM

Report Ki for CC(C(=O)NCc1ccc(C(F)(F)F)nc1N1CCC(c2cccs2)(N(C)C)CC1)c1ccc(NS(C)(=O)=O)c(F)c1 (centres unmarked) [[3]] please.
10.9 nM

Can you share its Ki? I mean this compound: CC(C(=O)NCc1ccc(C(F)(F)F)nc1N1CCC(Cc2cccc(F)c2)(N(C)C)CC1)c1ccc(NS(C)(=O)=O)c(F)c1 (centres unmarked) [[9]]
2.4 nM

---
Returns the measured Ki for the input compound. Input: CC(C(=O)NCc1ccc(C(C)(C)C)nc1N1CCC(Cc2ccccc2)(N(C)C)CC1)c1ccc(NS(C)(=O)=O)c(F)c1 (centres unmarked) [[6]]
2.6 nM

Quick one: Ki of CC(C(=O)NCc1ccc(C(F)(F)F)nc1N1CCC(Cc2ccccc2)(N(C)C)CC1)c1ccc(NS(C)(=O)=O)c(F)c1 (centres unmarked) [[5]] ?
6.3 nM

----------
Tested on: vanilloid receptor 1 (VR1/TRPV1) (Homo sapiens, UniProt Q8NER1)
Construct: expressed in transfected cells; host or cells: CHO K1 cells (ECACC), stably transfected
Sequence (Q8NER1 whole entry): as the sequence (Q8NER1 whole entry) above
Measurement notes: FLIPR capsaicin assay
Assay type: cell-based, human or rat
Setup conditions: functional Ki, capsaicin 100 nM, VR1-transfected CHO K1 cells, modified Cheng-Prusoff; read-out: f(Ki) (VR1)
The entries below come with measured log10(Ki) values attached.
Recorded Ki (log10, nM)

Solved entries:
Recall the recorded log10(Ki) for CC(C(=O)NCc1ccc(C(F)(F)F)cc1N1CCC(c2cccs2)(N(C)C)CC1)c1ccc(NS(C)(=O)=O)c(F)c1 (stereo not drawn) [[4]] with vanilloid receptor 1 (VR1/TRPV1) (Homo sapiens, UniProt Q8NER1) and state it.
0.70

Find the measured log10(Ki): item CC(C(=O)NCc1ccc(C(F)(F)F)cc1N1CCC(Cc2ccccc2)(N(C)C)CC1)c1ccc(NS(C)(=O)=O)c(F)c1 (stereo not drawn) [[7]] , target or system vanilloid receptor 1 (VR1/TRPV1) (Homo sapiens, UniProt Q8NER1).
0.45

Which log10(Ki) is reported with vanilloid receptor 1 (VR1/TRPV1) (Homo sapiens, UniProt Q8NER1) for this entry: Cc1cc(C(C)C(=O)NCc2ccc(C(F)(F)F)cc2N2CCC(Cc3cccc(F)c3)(N(C)C)CC2)ccc1NS(C)(=O)=O (stereo not drawn) [[11]] ?
0.20

Please state recorded log10(Ki) (tested on vanilloid receptor 1 (VR1/TRPV1) (Homo sapiens, UniProt Q8NER1)) of CC(C(=O)NCc1ccc(C(F)(F)F)cc1N1CCC(Cc2cccc(F)c2)(N(C)C)CC1)c1ccc(NS(C)(=O)=O)c(F)c1 (stereo not drawn) [[10]]
0.15

More entries:
Item Cc1cc(C(C)C(=O)NCc2ccc(C(F)(F)F)cc2N2CCC(Cc3ccccc3)(N(C)C)CC2)ccc1NS(C)(=O)=O (stereo not drawn) [[8]] with vanilloid receptor 1 (VR1/TRPV1) (Homo sapiens, UniProt Q8NER1) - log10(Ki)?
0.40

Form entry - test system: vanilloid receptor 1 (VR1/TRPV1) (Homo sapiens, UniProt Q8NER1); read-out: log10(Ki); compound: CC(C(=O)NCc1ccc(C(F)(F)F)nc1N1CCC(c2ccccc2)(N(C)C)CC1)c1ccc(NS(C)(=O)=O)c(F)c1 (stereo not drawn) [[1]]
1.50

----------
Form field: log10(Ki) (one value per entry).
Tested on: human recombinant μ-opioid receptor (Homo sapiens, UniProt P35372)
Sequence (P35372 whole entry): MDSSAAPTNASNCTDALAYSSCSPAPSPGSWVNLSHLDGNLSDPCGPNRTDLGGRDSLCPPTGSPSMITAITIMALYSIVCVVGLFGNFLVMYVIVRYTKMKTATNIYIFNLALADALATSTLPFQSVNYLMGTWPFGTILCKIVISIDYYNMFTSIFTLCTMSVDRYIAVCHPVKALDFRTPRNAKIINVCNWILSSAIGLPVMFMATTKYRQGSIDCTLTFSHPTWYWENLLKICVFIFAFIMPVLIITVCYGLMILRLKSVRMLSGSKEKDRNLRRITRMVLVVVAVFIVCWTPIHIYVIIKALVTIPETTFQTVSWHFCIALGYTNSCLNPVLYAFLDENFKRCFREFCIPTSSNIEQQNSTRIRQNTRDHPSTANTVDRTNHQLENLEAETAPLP
Measurement notes: Ki value at the μ-opioid receptor (Experiment 4)
Recorded Ki (log10, nM)

Consider the reported log10(Ki) for these compounds:
Give its log10(Ki) value. Item: Cc1cc(C(C)C(=O)NCc2ccc(C(F)(F)F)cc2N2CCC(Cc3ccccc3)(N(C)C)CC2)ccc1NS(C)(=O)=O (centres unmarked) [[8]]
1.34

Name the recorded log10(Ki) for CC(C(=O)NCc1ccc(C(F)(F)F)cc1N1CCC(Cc2cccc(F)c2)(N(C)C)CC1)c1ccc(NS(C)(=O)=O)c(F)c1 (centres unmarked) [[10]] .
1.90

Reported log10(Ki), compound CC(C(=O)NCc1ccc(C(C)(C)C)nc1N1CCC(c2ccccc2)(N(C)C)CC1)c1ccc(NS(C)(=O)=O)c(F)c1 (centres unmarked) [[2]] : ____
2.54

Given the entry CC(C(=O)NCc1ccc(C(F)(F)F)nc1N1CCC(c2cccs2)(N(C)C)CC1)c1ccc(NS(C)(=O)=O)c(F)c1 (centres unmarked) [[3]] , report its measured log10(Ki).
2.08

***
Need log10(Ki) of CC(C(=O)NCc1ccc(C(F)(F)F)nc1N1CCC(Cc2cccc(F)c2)(N(C)C)CC1)c1ccc(NS(C)(=O)=O)c(F)c1 (centres unmarked) [[9]] , thanks.
3.32

----------
Ki values for the molecules below.
Tested on: human recombinant μ-opioid receptor (Homo sapiens, UniProt P35372)
Measurement notes: Ki value at the μ-opioid receptor (Experiment 4)
Could you give me the number in nM? Just the number is fine.

See these solved cases before continuing.
Look up Ki: Cc1cc(C(C)C(=O)NCc2ccc(C(F)(F)F)cc2N2CCC(Cc3cccc(F)c3)(N(C)C)CC2)ccc1NS(C)(=O)=O (stereo not drawn) [[11]]
50

Query: Ki; subject: CC(C(=O)NCc1ccc(C(F)(F)F)nc1N1CCC(Cc2ccccc2)(N(C)C)CC1)c1ccc(NS(C)(=O)=O)c(F)c1 (stereo not drawn) [[5]]
715

Form field: reported Ki of CC(C(=O)NCc1ccc(C(F)(F)F)nc1N1CCC(c2ccccc2)(N(C)C)CC1)c1ccc(NS(C)(=O)=O)c(F)c1 (stereo not drawn) [[1]]
46

Could you tell me which Ki is on file for CC(C(=O)NCc1ccc(C(F)(F)F)cc1N1CCC(Cc2ccccc2)(N(C)C)CC1)c1ccc(NS(C)(=O)=O)c(F)c1 (stereo not drawn) [[7]] ?
24

Find the recorded Ki belonging to CC(C(=O)NCc1ccc(C(F)(F)F)cc1N1CCC(c2cccs2)(N(C)C)CC1)c1ccc(NS(C)(=O)=O)c(F)c1 (stereo not drawn) [[4]] and report it.
61

New cases:
Quick one: Ki for CC(C(=O)NCc1ccc(C(C)(C)C)nc1N1CCC(Cc2ccccc2)(N(C)C)CC1)c1ccc(NS(C)(=O)=O)c(F)c1 (stereo not drawn) [[6]] ?
3130
